Below, each of the compounds is paired with its reported Ki value.
target: human α2δ-1 subunit of Cav2.2 calcium channel (Homo sapiens (Human), UniProt P54289); assay: Binding assay to human α2δ-1 subunit of Cav2.2 calcium channel ([3H]-Gabapentin); conditions: Table 2, dual compounds; [3H]-Gabapentin binding; read-out: Ki (nM) α2δ-1
Sequence (P54289 25-1103): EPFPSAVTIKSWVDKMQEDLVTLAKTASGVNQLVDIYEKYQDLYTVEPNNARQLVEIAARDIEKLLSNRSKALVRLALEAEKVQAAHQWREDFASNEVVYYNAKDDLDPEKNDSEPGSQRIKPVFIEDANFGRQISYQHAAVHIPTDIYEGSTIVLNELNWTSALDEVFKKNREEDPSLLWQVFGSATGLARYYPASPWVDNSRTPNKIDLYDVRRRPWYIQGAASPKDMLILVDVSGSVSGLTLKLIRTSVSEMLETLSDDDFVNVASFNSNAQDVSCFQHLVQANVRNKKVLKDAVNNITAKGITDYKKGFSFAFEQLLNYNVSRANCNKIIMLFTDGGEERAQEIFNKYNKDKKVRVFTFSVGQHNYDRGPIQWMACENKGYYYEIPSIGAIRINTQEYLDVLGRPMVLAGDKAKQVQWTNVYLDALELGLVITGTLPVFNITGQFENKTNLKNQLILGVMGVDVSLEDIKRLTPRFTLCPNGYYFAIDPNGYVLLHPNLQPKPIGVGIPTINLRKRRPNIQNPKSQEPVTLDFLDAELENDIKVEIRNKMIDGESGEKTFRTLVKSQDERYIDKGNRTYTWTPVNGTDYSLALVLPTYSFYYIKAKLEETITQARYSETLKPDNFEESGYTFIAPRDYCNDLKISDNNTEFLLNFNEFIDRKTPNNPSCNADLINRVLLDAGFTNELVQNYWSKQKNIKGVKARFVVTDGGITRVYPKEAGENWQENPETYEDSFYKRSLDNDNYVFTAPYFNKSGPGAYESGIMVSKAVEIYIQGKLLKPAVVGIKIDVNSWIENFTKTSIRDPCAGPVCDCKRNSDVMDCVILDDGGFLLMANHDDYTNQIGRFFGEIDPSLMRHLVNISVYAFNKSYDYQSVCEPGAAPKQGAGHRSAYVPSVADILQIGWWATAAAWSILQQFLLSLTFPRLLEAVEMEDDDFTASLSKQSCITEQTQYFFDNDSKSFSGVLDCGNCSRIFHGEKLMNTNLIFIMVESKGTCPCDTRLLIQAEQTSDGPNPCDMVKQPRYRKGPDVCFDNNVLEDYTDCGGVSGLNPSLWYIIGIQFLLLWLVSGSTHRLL

CCNc1ncc2c(n1)N(C)CCN(c1cccc(COC(CCNC)c3cccs3)c1)C2=O (stereo not shown)	100 to 500 nM
CCNc1ncc2c(n1)N(C)CCN(c1ccc(OC(CNC)c3ccccc3)cc1)C2=O (stereo not shown)	> 3000 nM
CNCC(OCc1ccc(N2CCN(C)c3nc(SC)ncc3C2=O)cc1)c1ccccc1 (stereo not shown)	> 3000 nM

For the compound shown here, `CSc1ncc2c(n1)N(C)CCN(c1cccc(COC3(c4ccccc4)CCNCC3)c1)C2=O` , give the reported Ki.
> 3000 nM
